Entry source: PubChem BioAssay

# System: wheat germ agglutinin (Triticum aestivum), Alexa647-labelled
# PROCEDURE TEXT: wheat germ agglutinin binders on compound microarrays, profiling panel, artefact control for SMM control-protein annotation, biochemical, small-molecule microarray, 635/667 nm fluorescence (AID 1140);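 note: score merges 667 nm feature emission with signal to noise over triplicate slides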
# CONDITION CONTEXT: WGA-A647 binding, 635 nm fluorescence, higher = more signal
Given measured composite z-score, output Yes if it is greater than or equal to 0.7 and No if not.

Here are 6 molecules together with their reported answers.
[
  {
    "MOLECULE": "COCC(=C=CC[C@@H](O)c1cccc(OCCO)c1)C[C@@H](O)c1ccccn1",
    "ASSIGNED LABEL": "No"
  },
  {
    "MOLECULE": "COc1cc2c(cc1OC)CN(C(=O)[C@@H]1[C@H]3C(=O)O[C@H](c4ccccc4)[C@H](c4ccccc4)N3[C@H](c3ccccc3OCCO)[C@@]13C(=O)Nc1ccc(C#CCCO)cc13)CC2",
    "ASSIGNED LABEL": "Yes"
  },
  {
    "MOLECULE": "C=CCC(OC(C)=O)[C@@H]1[C@@H](N(Cc2ccc(-c3cccc(C(F)(F)F)c3)o2)C(=O)c2ccc(C)cc2)c2cc(OCCCO)ccc2N1C(=O)Cc1ccc2ccccc2c1 (stereo partly specified)",
    "ASSIGNED LABEL": "No"
  },
  {
    "MOLECULE": "COC(=O)[C@@]1(Cc2ccc(OC)cc2)[C@@H]2C(=CC(=O)[C@H]2CC(=O)C(=O)N2CCCC2)CN1C(=O)c1ccccc1",
    "ASSIGNED LABEL": "No"
  },
  {
    "MOLECULE": "CC1CC/C=C\\[C@H]2OC34C=CCN(C(C)(C)C)C(=O)[C@H]3N(C(C)CO)C(=O)[C@@H]4C2C(=O)O1 (stereo partly specified)",
    "ASSIGNED LABEL": "No"
  },
  {
    "MOLECULE": "C=C(CC1([C@@H](NP(=O)(c2ccccc2)c2ccccc2)[C@H]2C[C@@H]2CCCC)CC1)c1ccccc1",
    "ASSIGNED LABEL": "Yes"
  }
]

# evaluate next
Request: Decide: is the reported value of composite z-score for COC(=O)[C@@]1(CCS(=O)(=O)c2ccccc2)N=C(c2ccc(OCCCO)cc2)O[C@H]1c1ccccc1CN=[N+]=[N-] equal to or greater than 0.7?
Response: Yes

###

# PROCEDURE TEXT: PSAC antagonists in infected red cells, primary screen, cell-based, P. falciparum Indochina, OD700, 18 h (AID 1157)
# CONDITION CONTEXT: P. falciparum Indochina infected erythrocytes, osmotic lysis OD700, 18 h; higher = more signal, called active from +8 up or from −8 down
Items are presented alongside their recorded z-score.
Reply: number alone, nothing else.

Answered cases to consult:
[
  {
    "COMPOUND": "[N-]=[N+]=Nc1ccccc1[C@@H]1OC(c2ccc(OCCCO)cc2)=N[C@]1(Cc1ccccc1)C(=O)N1CCOCC1",
    "z-score": 3.91
  },
  {
    "COMPOUND": "O=C1O[C@@H](c2ccccc2)[C@@H](c2ccccc2)N2[C@@H](c3ccccc3OCCO)[C@]3(C(=O)Nc4ccc(C#CC5=CCCCC5)cc43)[C@@H](C(=O)N3CCCCCCC3)[C@H]12",
    "z-score": 0.68
  }
]

Request: I'd like to know its z-score. The compound in question is CCN(CC)c1ccc(N2CC=CC34O[C@@H]5C=CCCOC(=O)C5[C@H]3C(=O)N(CCCCCCO)[C@@H]4C2=O)cc1 (some centres not stated)
Response: -0.53

Request: I'd like to know its z-score. The compound in question is COCCOC(=O)N1C(=O)[C@@]2(c3cc(C#CCNC(N)=O)ccc31)[C@H](C(=O)Nc1nc3ccccc3s1)[C@H]1C(=O)O[C@H](c3ccccc3)[C@H](c3ccccc3)N1[C@@H]2c1ccc(OCCO)cc1
Response: 0.559

Request: I'd like to know its z-score. The compound in question is CN1C=C(C(=O)OCCS(C)(=O)=O)C(C(=O)OCCS(C)(=O)=O)=CC(c2ccc(CO)cc2)=CC1C1CC1 (configuration not stated)
Response: 0.897

Request: I'd like to know its z-score. The compound in question is CC1(C)C2C=C(C(O)C3C=CC4C(=O)NC(=O)C4N3Nc3ccc(Cl)cc3Cl)C[C@@H]1C2 (some centres not stated)
Response: 1.19

Request: I'd like to know its z-score. The compound in question is CN(C)CCCCCCNC(=O)[C@@H]1C[C@@H]2C(=O)N[C@@H](Cc3ccccc3)C(=O)N2[C@@H]1c1ccc(O)cc1
Response: 0.228

Request: I'd like to know its z-score. The compound in question is O=C1O[C@H](c2ccccc2)[C@H](c2ccccc2)N2[C@H]1[C@@H](C(=O)N1CCCCCCC1)[C@]1(C(=O)Nc3ccc(C#CCCO)cc31)[C@H]2c1ccccc1OCCO
Response: 0.565

Request: I'd like to know its z-score. The compound in question is COc1cc2c(cc1OC)CN(C(=O)[C@@H]1[C@H]3C(=O)O[C@H](c4ccccc4)[C@H](c4ccccc4)N3[C@H](c3ccccc3OCCO)[C@@]13C(=O)Nc1ccc(C#CCCO)cc13)CC2
Response: 0.565

Request: I'd like to know its z-score. The compound in question is CN(C)C(=O)[C@@]1(CCS(=O)(=O)c2ccccc2)COC(c2ccc(OCCCO)cc2)=N1
Response: 1.26

###

# PROCEDURE TEXT: small-molecule binders of probe aInhba, primary screen, biochemical, small-molecule microarray, 635/667 nm fluorescence (AID 1148);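 note: score merges 667nm spot fluorescence with signal-to-noise for antibody binding to printed compounds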
# CONDITION CONTEXT: higher = more signal
RESULT TYPE: composite z-score
Reply: number alone, nothing else.

Answered cases to consult:
[
  {
    "MOLECULE": "CC(C)C(CO)N1C(=O)[C@@H]2C3C(=O)OCCC/C=C\\[C@H]3OC23C=CCN(CCN2CCOCC2)C(=O)[C@@H]13 (stereo not given in full)",
    "MEASURED": -0.251
  },
  {
    "MOLECULE": "CC(=O)n1cc(C(O)C2C=CC3C(=O)N(c4ccccc4)C(=O)C3N2Nc2ccc([N+](=O)[O-])cc2)c2ccccc21 (stereo not given)",
    "MEASURED": -0.0371
  },
  {
    "MOLECULE": "CCCC#C[Si](O[C@H](CC)c1cn(Cc2cccc(Cl)c2)nn1)(C(C)C)C(C)C",
    "MEASURED": 0.192
  }
]

Request: I'd like to know its composite z-score. The molecule in question is CC(C)C(=C=CC[C@@H](O)c1ccc(OCCO)cc1)C[C@@H](O)COCc1ccccc1
Response: -0.0762

Request: I'd like to know its composite z-score. The molecule in question is CN(C)CCCCCCNC(=O)[C@H]1C[C@H]2C(=O)N[C@@H](CCCCN)C(=O)N2[C@H]1c1cccc(OCCO)c1
Response: 0.778

Request: I'd like to know its composite z-score. The molecule in question is COC(=O)[C@@]1(Cc2ccc(OC)cc2)[C@H]2c3cc(C(=O)N4CCCC4)n(Cc4ccc(C)c(F)c4F)c3C[C@H]2CN1C(=O)c1ccccc1
Response: 0.289

###

# PROCEDURE TEXT: basal S. cerevisiae growth modulation, no modifier, primary screen, OD600, strain BY4716, 24 h, basal condition (AID 1173)
# CONDITION CONTEXT: OD600, 24 h, higher = more signal, called active from +8 up or from −8 down
Items are presented alongside their recorded z-score.
Reply: number alone, nothing else.

Request: I'd like to know its z-score. The compound in question is CO[C@H]1O[C@H](CO)[C@@H](OC(=O)Nc2cccc(F)c2)[C@H](OC(=O)Nc2ccccc2)[C@@H]1OC(=O)Nc1ccccc1
Response: 0.706

Request: I'd like to know its z-score. The compound in question is O=C(NCCN1CCOCC1)[C@@H]1c2ccccc2C(=O)N(C2CCCCC2)[C@H]1c1ccc(CO)cc1
Response: 0.211

Request: I'd like to know its z-score. The compound in question is CC(C)NC(=O)[C@@]1(c2ccc([N+](=O)[O-])cc2)CC(=O)N(C2CCCCC2)[C@@H]1c1ccc(CO)cc1I
Response: -0.148

Request: I'd like to know its z-score. The compound in question is CCOC(=O)[C@H]1C/C=C/C[C@H](C(=O)OCC)C(=O)O[C@H]2[C@@H](OC)O[C@H](CO)[C@@H](OC(=O)c3c(OC)cccc3OC)[C@@H]2OC1=O
Response: -0.964

Request: I'd like to know its z-score. The compound in question is CC(C)[Si](C#Cc1ccc(Oc2ccccc2)cc1)(O[Si](C#Cc1ccc(Oc2ccccc2)cc1)(C(C)C)C(C)C)C(C)C
Response: 1.95

Request: I'd like to know its z-score. The compound in question is CCOC(=O)C[C@H]1[C@H](OC(=O)c2ccc(C(=O)c3ccccc3)cc2)[C@@H](NC(=O)CC(C)C)c2cc(OCCCO)ccc2N1C(=O)c1ccc2ccccc2n1
Response: 1.1

Request: I'd like to know its z-score. The compound in question is CN(C)CCCCCCNC(=O)[C@H]1C[C@H]2C(=O)N[C@@H](CCCCN)C(=O)N2[C@H]1c1cccc(OCCO)c1
Response: -1.69
